# target_under_test: Adenosine receptor A1 (Homo sapiens)
# Sequence (whole entry): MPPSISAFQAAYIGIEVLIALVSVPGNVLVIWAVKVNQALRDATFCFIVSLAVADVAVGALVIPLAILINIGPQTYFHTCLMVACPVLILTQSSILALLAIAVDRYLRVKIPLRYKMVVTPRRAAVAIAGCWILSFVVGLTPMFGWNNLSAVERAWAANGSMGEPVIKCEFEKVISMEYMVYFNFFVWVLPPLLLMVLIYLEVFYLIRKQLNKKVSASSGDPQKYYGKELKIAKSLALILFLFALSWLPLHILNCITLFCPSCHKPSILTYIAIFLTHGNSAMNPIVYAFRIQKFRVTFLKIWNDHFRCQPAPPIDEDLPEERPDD
# method_notes: Allosteric enhancer activity score measured by its ability to stabilize the agonist-receptor-G protein ternary complex at a concentration of 100 uM
# Format: functional
Decision: AE Score >= 20% yields MET, all other cases yield NOT MET.

>  <smiles_notation>
Nc1sccc1C(=O)c1ccc2ccccc2c1

>  <target_under_test>
Adenosine receptor A1 (Homo sapiens)

>  <label_class>
NOT MET

$$$$
>  <smiles_notation>
Nc1sccc1C(=O)c1cccc(Br)c1

>  <target_under_test>
Adenosine receptor A1 (Homo sapiens)

>  <label_class>
NOT MET

$$$$
>  <smiles_notation>
CCOC(=O)c1c(N)sc2c1CCC2

>  <target_under_test>
Adenosine receptor A1 (Homo sapiens)

>  <label_class>
NOT MET

$$$$
>  <smiles_notation>
Nc1sc2c(c1C(=O)c1ccc(C3CCCCC3)cc1)CCCC2

>  <target_under_test>
Adenosine receptor A1 (Homo sapiens)

>  <label_class>
MET

$$$$
>  <smiles_notation>
Nc1sc2c(c1C(=O)c1ccc(Br)cc1)CCCCC2

>  <target_under_test>
Adenosine receptor A1 (Homo sapiens)

>  <label_class>
MET

$$$$
>  <smiles_notation>
Nc1sccc1C(=O)c1ccccc1

>  <target_under_test>
Adenosine receptor A1 (Homo sapiens)

>  <label_class>
NOT MET

$$$$
>  <smiles_notation>
COc1ccc(C(=O)c2c(N)sc3c2CCCCC3)cc1

>  <target_under_test>
Adenosine receptor A1 (Homo sapiens)

>  <label_class>
MET

$$$$
>  <smiles_notation>
Nc1sc2c(c1C(=O)c1cccc(F)c1)CCC2

>  <target_under_test>
Adenosine receptor A1 (Homo sapiens)

>  <label_class>
NOT MET

$$$$
>  <smiles_notation>
Nc1sccc1C(=O)c1ccc(F)cc1

>  <target_under_test>
Adenosine receptor A1 (Homo sapiens)

>  <label_class>
NOT MET

$$$$
